The measurements presented in this section are drawn from ChEMBL document CHEMBL5291721.

- TARGET ENTITY: Muscarinic acetylcholine receptor M1 (Homo sapiens); note: assay procedure not described here
- Sequence (P11229 whole entry): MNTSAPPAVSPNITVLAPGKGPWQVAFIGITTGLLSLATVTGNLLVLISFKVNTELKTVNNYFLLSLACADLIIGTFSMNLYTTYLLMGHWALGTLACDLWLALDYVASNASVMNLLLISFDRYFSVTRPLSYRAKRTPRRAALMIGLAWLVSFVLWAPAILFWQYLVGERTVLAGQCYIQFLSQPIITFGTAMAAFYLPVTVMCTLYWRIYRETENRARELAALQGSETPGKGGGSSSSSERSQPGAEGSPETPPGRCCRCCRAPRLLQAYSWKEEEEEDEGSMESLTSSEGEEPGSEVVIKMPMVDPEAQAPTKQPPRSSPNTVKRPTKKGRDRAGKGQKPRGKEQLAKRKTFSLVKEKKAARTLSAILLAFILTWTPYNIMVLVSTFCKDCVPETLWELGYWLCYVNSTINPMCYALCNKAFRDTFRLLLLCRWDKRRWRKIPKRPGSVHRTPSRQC
- Format: functional
MEASURE: AC50

Some solved entries appear below for comparison.
INSERT INTO measurements (compound, measure, recorded_result) VALUES
  ('O=C1CN(/N=C/c2ccc(-c3ccc([N+](=O)[O-])cc3)o2)C(O)=N1', 'AC50', '> 10 µM'),
  ('CC1(C)S[C@@H]2[C@H](NC(=O)[C@H](N)c3ccccc3)C(=O)N2[C@H]1C(=O)OCOC(=O)[C@@H]1N2C(=O)C[C@H]2S(=O)(=O)C1(C)C', 'AC50', '> 30 µM'),
  ('CN1CCN(C2=Nc3ccccc3Oc3ccc(Cl)cc32)CC1', 'AC50', '0.794 µM'),
  ('OCc1cc(C(O)CNCCCCCCOCCCCc2ccccc2)ccc1O (stereo not drawn)', 'AC50', '> 10 µM'),
  ('C#C[C@]1(O)CC[C@H]2[C@@H]3CCC4=CC(=O)CC[C@@H]4[C@H]3C(=C)C[C@@]21CC', 'AC50', '> 30 µM'),
  ('COc1cc2c(cc1OC)C(CCc1ccc(Cl)cc1)N(C)CC2 (stereo not drawn)', 'AC50', '> 10 µM'),
  ('CCN1CCN(Cc2ccc(Nc3ncc(F)c(-c4cc(F)c5nc(C)n(C(C)C)c5c4)n3)nc2)CC1', 'AC50', '> 30 µM');

Now for a further compound.
Kindly note the recorded AC50 for Cn1c(=O)cc(N2CCC[C@@H](N)C2)n(Cc2ccccc2C#N)c1=O , which is > 10 µM
